Target: MLKL (Homo sapiens, UniProt Q8NB16)
Sequence (Q8NB16 1-471): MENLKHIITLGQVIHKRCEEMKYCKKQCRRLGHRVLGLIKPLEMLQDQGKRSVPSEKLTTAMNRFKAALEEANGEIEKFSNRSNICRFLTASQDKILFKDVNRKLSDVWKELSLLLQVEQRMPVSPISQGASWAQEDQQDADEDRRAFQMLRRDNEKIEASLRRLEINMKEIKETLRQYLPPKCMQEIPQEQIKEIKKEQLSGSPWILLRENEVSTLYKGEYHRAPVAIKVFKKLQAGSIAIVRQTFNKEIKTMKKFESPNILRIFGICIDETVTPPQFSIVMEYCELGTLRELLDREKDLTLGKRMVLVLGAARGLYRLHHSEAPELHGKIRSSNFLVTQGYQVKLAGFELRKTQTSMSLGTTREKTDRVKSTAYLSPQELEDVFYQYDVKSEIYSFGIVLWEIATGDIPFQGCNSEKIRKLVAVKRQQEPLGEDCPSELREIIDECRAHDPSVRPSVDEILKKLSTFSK
Recorded pKd values for a group of compounds are listed next.
The meaning of pKd here: minus log10 of the concentration in molar units.

Worked examples, 6 compounds total:
| Compound | Measured Number |
| --- | --- |
| Nc1ncc(-c2cnn(C3CCN(C(=O)C4CCN(C(=O)CC5CCN(c6ccc7c(c6)C(=O)N(C6CCC(=O)NC6=O)C7=O)CC5)CC4)CC3)c2)nc1C(=O)O[C@@H](C(=O)Nc1ccc(F)cc1)c1ccccc1 (some centres unmarked) | 8.64 |
| Nc1ncc(-c2cnn(C3CCN(CCCCCCNC(=O)CNc4cccc5c4C(=O)N(C4CCC(=O)NC4=O)C5=O)CC3)c2)nc1C(=O)O[C@@H](C(=O)Nc1ccc(F)cc1)c1ccccc1 (some centres unmarked) | 8.72 |
| Nc1ncc(-c2cnn(C3CCN(CC4CCN(C(=O)C5CN(c6ccc7nnn(C8CCC(=O)NC8=O)c(=O)c7c6)C5)CC4)CC3)c2)nc1C(=O)O[C@@H](C(=O)Nc1ccc(F)cc1)c1ccccc1 (some centres unmarked) | 8.34 |
| Nc1ncc(-c2cnn(C3CCN(CCOCCOCCNc4cccc5c4C(=O)N(C4CCC(=O)NC4=O)C5=O)CC3)c2)nc1C(=O)N[C@@H](C(=O)Nc1ccc(F)cc1)c1ccccc1 (some centres unmarked) | 7.04 |
| Nc1ncc(C2=CCN(C(=O)CCCCCNC(=O)C3CCN(c4ccc5c(c4)C(=O)N(C4CCC(=O)NC4=O)C5=O)CC3)CC2)cc1C(=O)O[C@@H](C(=O)Nc1ccc(F)cc1)c1ccccc1 (some centres unmarked) | 7.13 |
| Nc1ncc(-c2cnn(C3CCN(CCOC4CCN(C(=O)COc5ccc6c(c5)C(=O)N(C5CCC(=O)NC5=O)C6=O)CC4)CC3)c2)nc1C(=O)O[C@@H](C(=O)Nc1ccc(F)cc1)c1ccccc1 (some centres unmarked) | 8.59 |

Please turn your attention to the following entry.
Prompt: Form field - read-out: pKd; system: MLKL (Homo sapiens, UniProt Q8NB16); submitted item: CC(C)(C)OC(=O)N1CC[C@H](n2cc(-c3cnc(N)c(C(=O)OC(C(=O)Nc4ccc(F)cc4)c4ccccc4)n3)cn2)C1 (some centres unmarked)
Response: 7.92

###

Target: UniProt Q8NB16
Assay: MLKL degradation assay in HepG2 cell line (western blot)
Type: cell-based
Parameters: endogenous in cells; host or cells: HepG2 or HaCaT
Settings: compound 1 μM; cell line not given
Label yes when Degradation assay (Degradation %) 1 μM < 80%; otherwise no.

Prompt: Take the compound Nc1ncc(-c2cnn(C3CCN(C(=O)CC4CCN(C(=O)C5CCN(c6ccc7nnn(C8CCC(=O)NC8=O)c(=O)c7c6)CC5)CC4)CC3)c2)nc1C(=O)O[C@@H](C(=O)Nc1ccc(F)cc1)c1ccccc1 (some centres unmarked) and say whether its Degradation assay (Degradation %) 1 μM is less than 80%.
Response: no

Prompt: Bench note: check whether Nc1ncc(-c2cnn(C3CCN(CCC4CCN(C(=O)C5CCN(c6ccc7c(c6)C(=O)N(C6CCC(=O)NC6=O)C7=O)CC5)CC4)CC3)c2)nc1C(=O)O[C@@H](C(=O)Nc1ccc(F)cc1)c1ccccc1 (some centres unmarked) shows Degradation assay (Degradation %) 1 μM below 80%
Response: yes

Prompt: # TODO verify Degradation assay (Degradation %) 1 μM < 80% strictly for this compound: Cc1ncsc1-c1ccc(CNC(=O)[C@H]2C[C@H](O)CN2C(=O)[C@@H](NC(=O)CN2CCC(CCN3CCC(n4cc(-c5cnc(N)c(C(=O)OC(C(=O)Nc6ccc(F)cc6)c6ccccc6)n5)cn4)CC3)CC2)C(C)(C)C)cc1 (some centres unmarked)
Response: yes

Prompt: In plain terms, does Nc1ncc(-c2cnn(C3CCN(CCCC4CCN(C(=O)CCc5ccc6c(c5)C(=O)N(C5CCC(=O)NC5=O)C6=O)CC4)CC3)c2)nc1C(=O)O[C@@H](C(=O)Nc1ccc(F)cc1)c1ccccc1 (some centres unmarked) come in under 80% for Degradation assay (Degradation %) 1 μM?
Response: no

###

Target sequence: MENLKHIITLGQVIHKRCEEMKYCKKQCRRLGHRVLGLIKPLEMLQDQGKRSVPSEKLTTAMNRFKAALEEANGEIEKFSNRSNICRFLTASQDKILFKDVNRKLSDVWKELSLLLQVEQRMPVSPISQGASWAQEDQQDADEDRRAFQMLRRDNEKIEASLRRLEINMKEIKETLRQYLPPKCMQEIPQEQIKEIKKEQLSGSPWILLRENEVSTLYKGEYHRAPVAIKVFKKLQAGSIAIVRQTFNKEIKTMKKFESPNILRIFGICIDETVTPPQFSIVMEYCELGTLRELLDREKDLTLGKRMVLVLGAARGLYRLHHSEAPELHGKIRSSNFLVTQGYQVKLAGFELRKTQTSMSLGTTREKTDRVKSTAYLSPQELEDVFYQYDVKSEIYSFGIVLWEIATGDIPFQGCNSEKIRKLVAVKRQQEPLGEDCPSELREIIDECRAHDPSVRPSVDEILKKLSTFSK
Measured Attribute: pKd
Entry type: numeric. Quantity: pKd, the -log10 of concentration in molar units.

Below, each entry is followed by its recorded pKd result.
| Compound | pKd |
| --- | --- |
| Nc1ncc(-c2ccc(N3CCN(CCOCCOCCNC(=O)C4CCN(c5ccc6c(c5)C(=O)N(C5CCC(=O)NC5=O)C6=O)CC4)CC3)nc2)nc1C(=O)OC(C(=O)Nc1ccc(F)cc1)c1ccccc1 (stereo not drawn) | 7.11 |
| Nc1ncc(-c2cnn(C3CCN(CCCN4CCN(C(=O)C5CCN(c6ccc7c(c6)C(=O)N(C6CCC(=O)NC6=O)C7=O)CC5)CC4)CC3)c2)nc1C(=O)OC(C(=O)Nc1ccc(F)cc1)c1ccccc1 (stereo not drawn) | 8.38 |

Consider the additional compound presented here.
Prompt: What measured pKd goes with Nc1ncc(-c2cnn(C3CCN(C4CC5(CCN(CC6CCN(C(=O)c7ccc(C(=O)NC8CCC(=O)NC8=O)cc7)CC6)CC5)C4)CC3)c2)nc1C(=O)O[C@@H](C(=O)Nc1ccc(F)cc1)c1ccccc1 (stereo partly drawn) ?
Response: 9.21

###

Molecular target: MLKL (Homo sapiens)
Sequence (Q8NB16 1-471): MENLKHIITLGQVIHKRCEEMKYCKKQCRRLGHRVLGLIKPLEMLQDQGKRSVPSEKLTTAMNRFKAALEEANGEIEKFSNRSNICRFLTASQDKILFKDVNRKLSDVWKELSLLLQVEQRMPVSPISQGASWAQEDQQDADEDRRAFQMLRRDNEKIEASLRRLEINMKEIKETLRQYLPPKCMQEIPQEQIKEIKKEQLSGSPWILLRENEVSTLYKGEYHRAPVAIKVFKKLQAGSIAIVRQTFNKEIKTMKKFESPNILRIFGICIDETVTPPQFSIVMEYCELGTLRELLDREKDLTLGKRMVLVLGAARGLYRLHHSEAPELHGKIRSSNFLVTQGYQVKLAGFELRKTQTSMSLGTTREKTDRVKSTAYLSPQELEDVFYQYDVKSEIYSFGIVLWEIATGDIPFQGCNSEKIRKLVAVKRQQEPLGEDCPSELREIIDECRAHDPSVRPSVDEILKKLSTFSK
Test: MLKL degradation assay in HepG2 cell line (western blot)
Type: cell-based
Parameters: endogenous in cells; host or cells: HepG2 or HaCaT
Conditions: compound 10 μM; cell line not given
Measured Attribute: Degradation assay (Degradation %) 10 μM
I only need the number, in %, no unit after it.

| Molecule | Degradation assay (Degradation %) 10 μM |
| --- | --- |
| Nc1ncc(-c2cnn(C3CCN(C(=O)COC4CCN(C(=O)CNc5cccc6c5C(=O)N(C5CCC(=O)NC5=O)C6=O)CC4)CC3)c2)nc1C(=O)O[C@@H](C(=O)Nc1ccc(F)cc1)c1ccccc1 (stereo partly drawn) [TDH-395] | 89.67 |
| Nc1ncc(-c2cnn(C3CCN(C[C@H]4CC[C@H](CNc5ccc6c(c5)C(=O)N(C5CCC(=O)NC5=O)C6=O)CC4)CC3)c2)nc1C(=O)O[C@@H](C(=O)Nc1ccc(F)cc1)c1ccccc1 (stereo partly drawn) [TDH-352] | 42.16 |

Prompt: Write down the reported Degradation assay (Degradation %) 10 μM of Nc1ncc(-c2cnn(C3CCN(CC4CCN(C(=O)CC5CCN(c6cccc7c6C(=O)N(C6CCC(=O)NC6=O)C7=O)CC5)CC4)CC3)c2)nc1C(=O)O[C@@H](C(=O)Nc1ccc(F)cc1)c1ccccc1 (stereo partly drawn) [TDH-204] , test system: MLKL (Homo sapiens).
Response: 53.96
